Target: Mcl-1/Bim interaction, recombinant human Mcl-1 (171-327) (Homo sapiens, UniProt Q07820)
Construct: made in house
Sequence (Q07820 171-327): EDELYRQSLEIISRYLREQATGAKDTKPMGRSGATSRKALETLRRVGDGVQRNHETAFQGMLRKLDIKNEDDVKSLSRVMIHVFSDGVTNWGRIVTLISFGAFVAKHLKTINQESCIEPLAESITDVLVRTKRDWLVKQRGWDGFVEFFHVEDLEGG
Experiment: Cell free Mcl-1: Bim Affinity Assay (Mcl-1 HTRF)
Format: binding
Conditions: cell free Mcl-1:Bim TR-FRET, recombinant human Mcl-1 (171-327)
Answer each item with its documented pIC50.
One number for each entry, as −log10 of the molar value.

Some molecules with known pIC50 results, for comparison:
>>> reported_value("O=C1NS(=O)(=O)CCOC[C@@H](O)[C@@H]2CC[C@H]2CN2C[C@@]3(CCCc4cc(Cl)ccc43)COc3ccc1cc32 (single isomer, unassigned) [Example 866]")
8.02
>>> reported_value("C[C@H]1C/C=C/[C@H](O)[C@@H]2CC[C@H]2CN2C[C@@]3(CCCc4cc(Cl)ccc43)COc3ccc(cc32)C(=O)NS(=O)(=O)N1Cc1ccccn1 (single isomer, unassigned) [Example 667]")
9.61
>>> reported_value("O=C1NS(=O)(=O)CCC/C=C/C[C@@H]2CC[C@H]2CN2C[C@@]3(CCCc4cc(Cl)ccc43)COc3ccc1cc32 (single isomer, unassigned) [Example 495]")
8.60

State recorded pIC50 for all listed molecules.
1. Cc1ccc(S(=O)(=O)NCCO[C@H]2/C=C/C[C@H](C)[C@@H](C)S(=O)(=O)NC(=O)c3ccc4c(c3)N(C[C@@H]3CC[C@H]32)C[C@@]2(CCCc3cc(Cl)ccc32)CO4)cc1 [Example 726]
2. O=C1NS(=O)(=O)C(c2ccccc2)CC/C=C/[C@H](O)[C@@H]2CC[C@H]2CN2C[C@@]3(CCCc4cc(Cl)ccc43)COc3ccc1cc32 (single isomer, unassigned) [Example 674]
3. COC[C@@H]1C/C=C/[C@H](O)[C@@H]2CC[C@H]2CN2C[C@@]3(CCCc4cc(Cl)ccc43)COc3ccc(cc32)C(=O)NS1(=O)=O (single isomer, unassigned) [Example 773]
4. C[C@@H](O)C[C@@H]1CC/C=C\[C@H](O)[C@@H]2CC[C@H]2CN2C[C@@]3(CCCc4cc(Cl)ccc43)COc3ccc(cc32)C(=O)NS1(=O)=O (single isomer, unassigned) [Example 550]
5. O=C1NS(=O)(=O)CCOC2CCOC(C2)C2CCC2CN2CC3(CCCc4cc(Cl)ccc43)COc3ccc1cc32 (single isomer, unassigned) [Example 878]
6. CC[C@@H]1CC/C=C/C(=O)[C@@H]2CC[C@H]2CN2C[C@@]3(CCCc4cc(Cl)ccc43)COc3ccc(cc32)C(=O)NS1(=O)=O [Example 915]

1: 7.91; 2: 8.09; 3: 8.63; 4: 9.24; 5: 8.02; 6: 7.79

----------
Answer each item with its documented pIC50.
Biological target: Mcl-1/Bim interaction, recombinant human Mcl-1 (171-327) (Homo sapiens, UniProt Q07820)
Construct: made in house
Experiment: Cell free Mcl-1: Bim Affinity Assay (Mcl-1 HTRF)
Format: binding
Conditions: cell free Mcl-1:Bim TR-FRET, recombinant human Mcl-1 (171-327)
One number for each entry, as −log10 of the molar value.

>>> reported_value("COC(=O)C[C@@H]1CC/C=C/[C@H](OC)[C@@H]2CC[C@H]2CN2C[C@@]3(CCCc4cc(Cl)ccc43)COc3ccc(cc32)C(=O)NS1(=O)=O [Example 624]")
9.47
>>> reported_value("C[C@@H]1[C@@H](C)C/C=C/[C@H](OCCN2CC(F)C2)[C@@H]2CC[C@H]2CN2C[C@@]3(CCCc4cc(Cl)ccc43)COc3ccc(cc32)C(=O)NS1(=O)=O [Example 532]")
9.37

Kindly consider the entry below.
Which measured pIC50 value corresponds to O=C1NS(=O)(=O)CCCC[C@@H](O)[C@H](O)[C@@H]2CC[C@H]2CN2C[C@@]3(CCCc4cc(Cl)ccc43)COc3ccc1cc32 (single isomer, unassigned) [Example 853] ?
7.93

----------
Answer each item with its documented IC50.
Biological target: Mcl-1/Bim interaction, recombinant human Mcl-1 (171-327) (Homo sapiens)
Construct: made in house
Test: Cell free Mcl-1: Bim Affinity Assay (Mcl-1 HTRF)
Type: binding
Conditions: TR-FRET, 0.1 nM Mcl-1 (171-327), 0.05 nM biotin-Bim (51-76)
One number for each entry, in nM.

Some compounds with known IC50 results, for comparison:
>>> reported_value("O=C1NS(=O)(=O)[C@H](Cc2nccs2)CC/C=C/[C@H](O)[C@@H]2CC[C@H]2CN2C[C@@]3(CCCc4cc(Cl)ccc43)COc3ccc1cc32 (single isomer, unassigned)")
0.731
>>> reported_value("COC[C@H]1CC/C=C/[C@H](O)[C@@H]2CC[C@H]2CN2C[C@@]3(CCCc4cc(Cl)ccc43)COc3ccc(cc32)C(=O)NS1(=O)=O")
2.56

Which measured IC50 value corresponds to C[C@H]1CCCS(=O)(=O)NC(=O)c2ccc3c(c2)N(C[C@@H]2CC[C@H]2[C@@H](O)C1)C[C@@]1(CCCc2cc(Cl)ccc21)CO3 (single isomer, unassigned) [Example 242] ?
3.05

----------
Target: Mcl-1/Bim interaction, recombinant human Mcl-1 (171-327) (Homo sapiens, UniProt Q07820)
Construct: made in house
Experiment: Cell free Mcl-1: Bim Affinity Assay (Mcl-1 HTRF)
Format: binding
Conditions: TR-FRET, 0.1 nM Mcl-1 (171-327), 0.05 nM biotin-Bim (51-76)
Answer each item with its documented pIC50.
Give bare numbers, as −log10 of the molar value.

Some molecules with known pIC50 results, for comparison:
>>> reported_value("CC[C@@H]1CC[C@H](O)/C=C/[C@@H]2CC[C@H]2CN2C[C@@]3(CCCc4cc(Cl)ccc43)COc3ccc(cc32)C(=O)NS1(=O)=O (single isomer, unassigned)")
8.95
>>> reported_value("COCCOCC[C@@H]1[C@@H](C)C/C=C/[C@H](O)[C@@H]2CC[C@H]2CN2C[C@@]3(CCCc4cc(Cl)ccc43)COc3ccc(cc32)C(=O)NS1(=O)=O (single isomer, unassigned) [Example 399]")
9.62
>>> reported_value("O=C1NS(=O)(=O)[C@@H](CCOC(F)(F)F)CC/C=C/[C@H](O)[C@@H]2CC[C@H]2CN2C[C@@]3(CCCc4cc(Cl)ccc43)COc3ccc1cc32 (single isomer, unassigned)")
7.74
>>> reported_value("CC[C@@H]1CC/C=C/[C@H](OCC(=O)N2CCC(F)(F)CC2)[C@@H]2CC[C@H]2CN2C[C@@]3(CCCc4cc(Cl)ccc43)COc3ccc(cc32)C(=O)NS1(=O)=O")
8.67

Which measured pIC50 value corresponds to C[C@H]1/C=C/[C@H](O)[C@@H]2CC[C@H]2CN2C[C@@]3(CCCc4cc(Cl)ccc43)COc3ccc(cc32)C(=O)NS(=O)(=O)[C@@H]2COC[C@H]21 (single isomer, unassigned) ?
9.60

----------
Target: Mcl-1/Bim interaction, recombinant human Mcl-1 (171-327) (Homo sapiens, UniProt Q07820)
Construct: made in house
Assay: Cell free Mcl-1: Bim Affinity Assay (Mcl-1 HTRF)
Type: binding
Settings: TR-FRET, 0.1 nM Mcl-1 (171-327), 0.05 nM biotin-Bim (51-76)
QUANTITY: IC50 (nM)
Numbers only, in nM.

Some compounds with known IC50 results, for comparison:
>>> reported_value("O=C1NS(=O)(=O)C(CCOC(F)(F)F)CC/C=C/[C@H](O)[C@@H]2CC[C@H]2CN2C[C@@]3(CCCc4cc(Cl)ccc43)COc3ccc1cc32 (single isomer, unassigned) [Example 1012]")
0.698
>>> reported_value("COCCO[C@@H]1/C=C/CCCS(=O)(=O)NC(=O)c2ccc3c(c2)N(C[C@@H]2CC[C@H]21)C[C@@]1(CCCc2cc(Cl)ccc21)CO3 [Example 210]")
1.59

Kindly consider the entry below.
Which measured IC50 value corresponds to CO[C@H]1/C=C/CC[C@@H](CCS(=O)(=O)C(C)(C)C)S(=O)(=O)NC(=O)c2ccc3c(c2)N(C[C@@H]2CC[C@H]21)C[C@@]1(CCCc2cc(Cl)ccc21)CO3 (single isomer, unassigned) [Example 156] ?
0.831

----------
Answer each item with its documented pIC50.
Molecular target: Mcl-1/Bim interaction, recombinant human Mcl-1 (171-327) (Homo sapiens, UniProt Q07820)
Construct: made in house
Test: Cell free Mcl-1: Bim Affinity Assay (Mcl-1 HTRF)
Type: binding
Conditions: cell free Mcl-1:Bim TR-FRET, recombinant human Mcl-1 (171-327)
Answers are plain numbers, as −log10 of the molar value.

Some molecules with known pIC50 results, for comparison:
>>> reported_value("C[C@@H]1[C@@H](C)C/C=C/[C@H](OCCO[C@H]2CCCCO2)[C@@H]2CC[C@H]2CN2C[C@@]3(CCCc4cc(Cl)ccc43)COc3ccc(cc32)C(=O)NS1(=O)=O (mixture of isomers) [Example 517]")
8.73
>>> reported_value("C[C@@H]1[C@@H](C)C/C=C/[C@H](OCCCl)[C@@H]2CC[C@H]2CN2C[C@@]3(CCCc4cc(Cl)ccc43)COc3ccc(cc32)C(=O)NS1(=O)=O [Example 511]")
8.82

Kindly consider the entry below.
Field: pIC50 (Mcl-1/Bim interaction, recombinant human Mcl-1 (171-327) (Homo sapiens, UniProt Q07820)). Entry: CC(=O)N(C)[C@H]1CCCCCS(=O)(=O)NC(=O)c2ccc3c(c2)N(C[C@@H]2CC[C@H]21)C[C@@]1(CCCc2cc(Cl)ccc21)CO3 (single isomer, unassigned) [Example 940]
7.73
